Tested on: SARS-CoV-2
Assay: microbe, parasite or virus in culture
Format: cell-based, SARS-CoV-2 (VeroE6, African green monkey kidney cells)
Settings: Severe acute respiratory syndrome coronavirus 2, Vero C1008; VeroE6 cells; FIG. 5; read-out: IC50 of inhibition of SARS-CoV-2 infection and/or proliferation
pIC50: −log10 of the molar value.
measurement.kind: pIC50

{"columns": ["compound", "value.observed"],
 "data": [
  ["NCC(=O)CCC(=O)O [5-ALA, 5-aminolevulinic acid]", 3.24]
]}

Source of measurements: patent US20230190690A1
